Value source: the supplement of paper PMC11061612

Each record here notes measured Bliss excess.
Test system: UACC-62 (Melanoma);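 note: after 72 h of two-drug dosing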
Assay: Bliss excess, mean over the matrix (fraction); higher = more synergy
The reply should be a number, written without any unit.

# compound, Bliss excess
data = [
    ("Cc1c2c(nn1C)CSCc1cc(n(C)n1)CSc1cc(c3ccccc3c1)OCCCc1c(C(=O)O)n(C)c3c-2c(Cl)ccc13 [AZD5991] + CC1(C)CCC(CN2CCN(c3ccc(C(=O)NS(=O)(=O)c4ccc(NCC5CCOCC5)c([N+](=O)[O-])c4)c(Oc4cnc5[nH]ccc5c4)c3)CC2)=C(c2ccc(Cl)cc2)C1 [Venetoclax] (first compound max 1 µM, 7x7, partner max 1 µM)", 0.0296),
]

Lookup: Provide value of Bliss excess for this record tested with UACC-62 (Melanoma): O=C(c1cc(Cc2n[nH]c(=O)c3ccccc23)ccc1F)N1CCN(C(=O)C2CC2)CC1 [Olaparib] + Cc1c2c(nn1C)CSCc1cc(n(C)n1)CSc1cc(c3ccccc3c1)OCCCc1c(C(=O)O)n(C)c3c-2c(Cl)ccc13 [AZD5991] (first compound max 10 µM, 7x7, partner max 1 µM)
Found: -0.0089

Lookup: Provide value of Bliss excess for this record tested with UACC-62 (Melanoma): COc1cc2c(cc1OCCCCCOc1cc3c(cc1OC)C(=O)N1C=C(C)C[C@H]1C=N3)N=C[C@@H]1CC(C)=CN1C2=O [SG3199] + O=C(c1cc(Cc2n[nH]c(=O)c3ccccc23)ccc1F)N1CCN(C(=O)C2CC2)CC1 [Olaparib] (first compound max 0.001 µM, 7x7, partner max 10 µM)
Found: -0.0663
